System: HEK293FT dCK*-only
assay summary: relative growth in counter assay (no AraC = 100%, AraC + DMSO = 0%); higher = more growth rescue independent of IKZF1
condition context: compound concentration: 5 uM; AraC concentration: 0.3 uM; overnight pretreatment + 4 days AraC
experimental endpoint: relative growth in counter assay

CCCCCCCC[N+](C)(C)Cc1ccccc1 ... 4.74%
CC[n+]1c(-c2ccccc2)c2cc(N)ccc2c2ccc(N)cc21 ... -32.8%
CNCC(O)c1ccc(O)c(O)c1 (racemic) ... -3.86%
O=C(N/N=C/c1ccccc1O)c1ccccc1O ... 0.05%
COc1ccc(-c2ccc3c(N4CCOC[C@@H]4C)nc(N4CCOC[C@@H]4C)nc3n2)cc1CO ... -33.9%
CCN(CC)CCCC(C)Nc1c2ccc(Cl)cc2nc2ccc(OC)cc12 (centres undefined) ... -34.1%
CCN1CCN(Cc2ccc(-c3cc4c(N[C@H](C)c5ccccc5)ncnc4[nH]3)cc2)CC1 ... -18.1%
CN1CCN(Cc2ccc(-c3cnc4[nH]cc(-c5ccc6[nH]ccc6c5)c4c3)cc2)CC1 ... -34.1%

Below: the item to evaluate.
-- ask Fill in: relative growth in counter assay of CC(=O)Nc1cccc(Nc2ncnc(N3CCC(OCc4ccc(OC(F)(F)F)cc4)CC3)n2)c1C is ___
-- reply -5.23%

###

experimental system: IKZF1 (dCK*-IKZF1 fusion in HEK293FT) (UniProt Q13422)
Sequence (Q13422 whole entry, looked up, the tested form may be a part): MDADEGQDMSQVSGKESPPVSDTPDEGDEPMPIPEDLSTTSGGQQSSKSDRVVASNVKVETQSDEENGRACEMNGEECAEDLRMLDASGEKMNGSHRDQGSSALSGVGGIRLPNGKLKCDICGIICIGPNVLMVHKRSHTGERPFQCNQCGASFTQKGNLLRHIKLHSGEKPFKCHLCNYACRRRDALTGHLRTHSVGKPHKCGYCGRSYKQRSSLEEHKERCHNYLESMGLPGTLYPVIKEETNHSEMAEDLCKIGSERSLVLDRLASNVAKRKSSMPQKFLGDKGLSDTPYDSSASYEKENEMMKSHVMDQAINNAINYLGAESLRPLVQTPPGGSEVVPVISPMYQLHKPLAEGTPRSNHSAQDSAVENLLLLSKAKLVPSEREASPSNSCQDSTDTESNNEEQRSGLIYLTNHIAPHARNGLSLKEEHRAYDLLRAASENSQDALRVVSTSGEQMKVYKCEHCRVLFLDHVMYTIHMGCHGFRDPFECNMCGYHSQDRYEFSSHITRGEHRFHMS
assay summary: inhibition of IKZF1 HTRF signal (DMSO = 0%, pomalidomide 10 uM = 100%); higher = lower IKZF1 protein level
condition context: compound concentration: 5 uM, overnight (~20 h)
Measured inhibition of IKZF1 HTRF signal values are reported for all entries that follow.
Report as: number unit

The cases that follow already have their inhibition of IKZF1 HTRF signal on record.
CN1C(=O)/C(=C2/C(=O)Nc3ccccc32)c2ccccc21 ... -22.1%
CC(C)(C)CC(C)(C)c1ccc(OCCOCC[N+](C)(C)Cc2ccccc2)cc1 ... 16%

Below: the item to evaluate.
-- ask Fill in: inhibition of IKZF1 HTRF signal of Cc1cc(/C=C2\SC(=O)N(c3ccccc3)C2=O)c(C)n1-c1cccnc1 is ___
-- reply -32.6%

###

experimental system: IKZF1 (dCK*-IKZF1 fusion in HEK293FT) (UniProt Q13422)
assay summary: inhibition of IKZF1 HTRF signal (DMSO = 0%, pomalidomide 10 uM = 100%); higher = lower IKZF1 protein level
condition context: compound concentration: 5 uM, overnight (~20 h)
Structures can show the parent of a compound that is named as a salt.
Label Y when inhibition of IKZF1 HTRF signal is at or above -30%; anything below gets N.

Would you please look over these solved cases?
O=[N+]([O-])c1ccc2nc(COCc3nc4ccc([N+](=O)[O-])cc4[nH]3)[nH]c2c1 ... N
CO[C@@]12[C@@H]3NC3CN1C1=C(C(=O)C(N)=C(C)C1=O)[C@@H]2COC(N)=O (some centres undefined) ... Y
O=C(Nc1ccc(S(=O)(=O)Nc2ccccc2Cl)c(Cl)c1)c1ccccn1 ... Y
NC(=O)N/N=C/c1ccc([N+](=O)[O-])o1 ... N
CSc1ccc2c(c1)N(CCC1CCCCN1C)c1ccccc1S2 (centres undefined) [Thioridazine HCl] ... Y
C=CCNc1c(O)cc2c(O)c1C[C@@H](C)C[C@H](OC)[C@H](O)[C@@H](C)/C=C(\C)[C@H](OC(N)=O)[C@@H](OC)/C=C\C=C(/C)C(=O)N2 [Retaspimycin (Hydrochloride)] ... N

-- ask API: above_or_equal(metric=inhibition of IKZF1 HTRF signal, cutoff=-30%) for item Nc1nc2c(ccc3ccccc32)s1
-- reply N

-- ask Try c1ccc(C(NCc2cccnc2)(c2ccccc2)c2ccccc2)cc1 next.
-- reply Y

-- ask Try CCCSc1ccc2[nH]c(NC(=O)OC)nc2c1 next.
-- reply Y

-- ask Try CCCS(=O)c1ccc2nc(NC(=O)OC)[nH]c2c1 (centres undefined) [Albendazole Oxide (Ricobendazole)] next.
-- reply Y
